Entries annotated with measured half-life
- PROCEDURE SUMMARY: Half life in rat at 3 mg/kg, po
- Format: ADME, organism-based
- ASSAY CONDITIONS: in vivo
// note: answer is a bare numeric in h

>>> value("Cc1coc2c1C(=O)c1c3c-2ccc2c3c(n1Cc1ccccc1)C(=O)CC2(C)C")
4.05

Given the entry Cc1coc2c1C(=O)C(=O)c1c-2ccc2c1CCCC2(C)C , report its measured half-life.
0.34

---

- TARGET OR TEST SYSTEM: Matrix metalloproteinase-9 (Homo sapiens, UniProt P14780)
- Sequence (P14780 whole entry): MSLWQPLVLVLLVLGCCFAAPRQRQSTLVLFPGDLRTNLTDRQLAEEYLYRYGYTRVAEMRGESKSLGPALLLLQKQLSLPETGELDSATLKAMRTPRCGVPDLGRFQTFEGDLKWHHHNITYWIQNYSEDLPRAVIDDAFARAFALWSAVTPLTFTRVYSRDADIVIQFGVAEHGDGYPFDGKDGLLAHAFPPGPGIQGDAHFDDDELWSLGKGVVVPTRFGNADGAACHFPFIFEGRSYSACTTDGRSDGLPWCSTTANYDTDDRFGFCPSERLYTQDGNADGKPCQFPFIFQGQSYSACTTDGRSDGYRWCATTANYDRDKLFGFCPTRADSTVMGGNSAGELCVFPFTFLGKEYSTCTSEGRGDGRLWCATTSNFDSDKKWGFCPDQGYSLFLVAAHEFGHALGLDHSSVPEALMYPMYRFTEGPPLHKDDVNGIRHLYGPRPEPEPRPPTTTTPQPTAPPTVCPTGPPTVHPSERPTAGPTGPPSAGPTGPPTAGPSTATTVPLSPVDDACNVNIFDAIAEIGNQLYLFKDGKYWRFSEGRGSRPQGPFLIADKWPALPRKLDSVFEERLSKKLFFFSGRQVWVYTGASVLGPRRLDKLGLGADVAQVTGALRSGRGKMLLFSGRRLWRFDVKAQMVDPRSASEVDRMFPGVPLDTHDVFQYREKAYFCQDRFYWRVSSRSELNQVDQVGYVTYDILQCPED
MEASURED ENDPOINT: IC50 (nM)
// note: answer is a bare numeric in nM

Provide value of IC50 for this record tested with Matrix metalloproteinase-9 (Homo sapiens, UniProt P14780): O=C1NC(=O)C(O)(CC(=O)c2ccc(NS(=O)(=O)c3ccc(C(F)(F)F)cc3)cc2)C(=O)N1
8.24

---

Entries annotated with measured pIC50
- TARGET OR TEST SYSTEM: Neutrophil collagenase (Homo sapiens)
- Sequence (P22894 whole entry): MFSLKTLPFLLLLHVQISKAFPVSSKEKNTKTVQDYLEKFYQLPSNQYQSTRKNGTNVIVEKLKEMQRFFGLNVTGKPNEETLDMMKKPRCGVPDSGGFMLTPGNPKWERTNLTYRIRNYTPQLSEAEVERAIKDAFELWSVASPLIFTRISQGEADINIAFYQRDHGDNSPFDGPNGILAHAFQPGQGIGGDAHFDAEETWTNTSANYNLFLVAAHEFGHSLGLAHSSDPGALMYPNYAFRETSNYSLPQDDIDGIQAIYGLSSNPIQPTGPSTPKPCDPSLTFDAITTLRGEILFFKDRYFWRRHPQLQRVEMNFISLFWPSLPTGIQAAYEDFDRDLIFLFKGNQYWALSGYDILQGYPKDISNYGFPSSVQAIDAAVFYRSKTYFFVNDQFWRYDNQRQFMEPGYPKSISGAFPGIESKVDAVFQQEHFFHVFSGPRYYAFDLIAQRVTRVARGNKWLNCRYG
- PROCEDURE SUMMARY: Inhibition of recombinant human MMP-8 using QF24 as substrate incubated for 3 hrs by spectrofluorometer assay
Remember, pIC50 is on a log scale: it is -log10 of the molar concentration.

Given the entry O=C(CCN1CCN(Cc2ccccc2)CC1)Nc1nc(-c2ccccc2)cs1 , report its measured pIC50.
4.93

Given the entry O=C(CN1CCN(c2ccccc2)CC1)Nc1nc(-c2ccc(F)cc2)cs1 , report its measured pIC50.
5.63

---

- TARGET OR TEST SYSTEM: 72 kDa type IV collagenase (Homo sapiens, UniProt P08253)
- Sequence (P08253 whole entry): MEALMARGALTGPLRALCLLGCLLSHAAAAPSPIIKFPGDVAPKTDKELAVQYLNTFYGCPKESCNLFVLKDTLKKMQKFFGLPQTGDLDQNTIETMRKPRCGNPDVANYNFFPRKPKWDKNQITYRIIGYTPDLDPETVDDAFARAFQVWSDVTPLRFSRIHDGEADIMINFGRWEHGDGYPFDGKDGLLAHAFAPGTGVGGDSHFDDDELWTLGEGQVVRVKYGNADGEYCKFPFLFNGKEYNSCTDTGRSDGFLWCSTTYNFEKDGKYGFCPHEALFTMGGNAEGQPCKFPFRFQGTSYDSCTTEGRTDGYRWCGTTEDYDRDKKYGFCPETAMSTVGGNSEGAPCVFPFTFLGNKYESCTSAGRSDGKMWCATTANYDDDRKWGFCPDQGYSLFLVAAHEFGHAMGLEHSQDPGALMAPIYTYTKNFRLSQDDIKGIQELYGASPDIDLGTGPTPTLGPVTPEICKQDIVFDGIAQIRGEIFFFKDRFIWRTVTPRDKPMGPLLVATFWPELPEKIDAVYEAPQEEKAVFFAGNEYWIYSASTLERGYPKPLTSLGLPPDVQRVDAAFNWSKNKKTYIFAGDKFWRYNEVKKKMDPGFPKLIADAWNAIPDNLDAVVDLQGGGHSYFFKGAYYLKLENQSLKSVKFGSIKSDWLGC
- PROCEDURE SUMMARY: Inhibition of MMP-2 (unknown origin)
MEASURED ENDPOINT: IC50 (nM)
// note: answer is a bare numeric in nM

Given the entry O=C1NC(=O)C(O)(CC(=O)c2ccc(NS(=O)(=O)c3ccc(C(F)(F)F)cc3)cc2)C(=O)N1 , report its measured IC50.
2.35
